test system: DOK (Oral Cavity Carcinoma); test: Bliss excess, mean over the matrix (fraction); higher = more synergy;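 also: after 72 h of two-drug dosing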
Mark met for reported Bliss excess of -0.01 or greater; mark not met for anything smaller.

Here's what some known entries look like.
COc1nnc2ccc(N3CCC(c4ccc(OCCN5CCN(C)C(=O)[C@H]5C)cc4)CC3)nn12 [AZD5153] + Cc1c2c(nn1C)CSCc1cc(n(C)n1)CSc1cc(c3ccccc3c1)OCCCc1c(C(=O)O)n(C)c3c-2c(Cl)ccc13 [AZD5991] (first compound max 1 µM, 7x7, partner max 1 µM) ... met
C=CCn1c(=O)c2cnc(Nc3ccc(N4CCN(C)CC4)cc3)nc2n1-c1cccc(C(C)(C)O)n1 [AZD1775] + C[C@@H]1COCCN1C2=NC(=NC(=C2)C3(CC3)[S@](=N)(=O)C)C4=C5C=CNC5=NC=C4 [AZD6738] (first compound max 1 µM, partner max 10 µM) ... met
C=CCn1c(=O)c2cnc(Nc3ccc(N4CCN(C)CC4)cc3)nc2n1-c1cccc(C(C)(C)O)n1 [AZD1775] + CCc1c2c(nc3ccc(O)cc13)-c1cc3c(c(=O)n1C2)COC(=O)[C@]3(O)CC [SN-38] (first compound max 1 µM, partner max 0.3 µM) ... met
CC1(C)CCC(CN2CCN(c3ccc(C(=O)NS(=O)(=O)c4ccc(NCC5CCOCC5)c([N+](=O)[O-])c4)c(Oc4cnc5[nH]ccc5c4)c3)CC2)=C(c2ccc(Cl)cc2)C1 [Venetoclax] + CCN(CCO)CCCOc1ccc2c(Nc3cc(CC(=O)Nc4cccc(F)c4)[nH]n3)ncnc2c1 [AZD2811] (first compound max 1 µM, 7x7, partner max 1 µM) ... not met

Moving on to another molecule below.
Confirm if Bliss excess reported for the molecule Cc1c2c(nn1C)CSCc1cc(n(C)n1)CSc1cc(c3ccccc3c1)OCCCc1c(C(=O)O)n(C)c3c-2c(Cl)ccc13 [AZD5991] + CS(=O)(=O)CCNCc1ccc(-c2ccc3ncnc(Nc4ccc(OCc5cccc(F)c5)c(Cl)c4)c3c2)o1 [Lapatinib] (first compound max 1 µM, 7x7, partner max 10 µM) is -0.01 or above.
met

----------
tested on: SK-MEL-1 (Melanoma); experiment: Bliss excess, mean over the matrix (fraction); higher = more synergy
recordedMetric: Bliss excess
Just the number, please, no unit attached.

Completed entries (count: 8):
CC1(C)CCC(CN2CCN(c3ccc(C(=O)NS(=O)(=O)c4ccc(NCC5CCOCC5)c([N+](=O)[O-])c4)c(Oc4cnc5[nH]ccc5c4)c3)CC2)=C(c2ccc(Cl)cc2)C1 [Venetoclax] + Cc1cc2ncnn2cc1Nc1ncc2c(n1)n(C1CCOCC1)c(=O)n2C [AZD7648] (first compound max 1 µM, 7x7, partner max 10 µM) ... -0.0242
Cc1cc2ncnn2cc1Nc1ncc2c(n1)n(C1CCOCC1)c(=O)n2C [AZD7648] + C[C@@H]1COCCN1C2=NC(=NC(=C2)C3(CC3)[S@](=N)(=O)C)C4=C5C=CNC5=NC=C4 [AZD6738] (first compound max 10 µM, 7x7, partner max 10 µM) ... -0.0388
Cc1cc2ncnn2cc1Nc1ncc2c(n1)n(C1CCOCC1)c(=O)n2C [AZD7648] + CN(C)CCCOc1ccc(-c2ccc3ncc4c(c3c2)n(C2CCOCC2)c(=O)n4C)cn1 [AZD0156] (first compound max 10 µM, 7x7, partner max 1 µM) ... -0.0082
CCN(CCO)CCCOc1ccc2c(Nc3cc(CC(=O)Nc4cccc(F)c4)[nH]n3)ncnc2c1 [AZD2811] + O=C(c1cc(Cc2n[nH]c(=O)c3ccccc23)ccc1F)N1CCN(C(=O)C2CC2)CC1 [Olaparib] (first compound max 1 µM, 7x7, partner max 10 µM) ... -0.0325
COc1nnc2ccc(N3CCC(c4ccc(OCCN5CCN(C)C(=O)[C@H]5C)cc4)CC3)nn12 [AZD5153] + CC1(C)CCC(CN2CCN(c3ccc(C(=O)NS(=O)(=O)c4ccc(NCC5CCOCC5)c([N+](=O)[O-])c4)c(Oc4cnc5[nH]ccc5c4)c3)CC2)=C(c2ccc(Cl)cc2)C1 [Venetoclax] (first compound max 1 µM, 7x7, partner max 1 µM) ... 0.0777
COc1cccc(OCCCN)c1-c1cc(Nc2cnc(C#N)cn2)n[nH]1 [Prexasertib] + Cc1cc2ncnn2cc1Nc1ncc2c(n1)n(C1CCOCC1)c(=O)n2C [AZD7648] (first compound max 1 µM, 7x7, partner max 10 µM) ... -0.0247
CN(CCO)CC[C@H](CSc1ccccc1)Nc1ccc(S(=O)(=O)NC(=O)c2ccc(N3CCC([C@@H](O)c4ccccc4-c4ccc(Cl)cc4)CC3)cc2)cc1S(=O)(=O)C(F)(F)F [AZD4320] + C1CN(CCC1(C(=O)N[C@@H](CCO)C2=CC=C(C=C2)Cl)N)C3=NC=NC4=C3C=CN4 [Capivasertib] (first compound max 1 µM, 7x7, partner max 3 µM) ... -0.0281
COc1nnc2ccc(N3CCC(c4ccc(OCCN5CCN(C)C(=O)[C@H]5C)cc4)CC3)nn12 [AZD5153] + Cn1cnc2c(F)c(Nc3ccc(Br)cc3Cl)c(C(=O)NOCCO)cc21 [Selumetinib] (first compound max 1 µM, 7x7, partner max 10 µM) ... 0.0933

Turning now to a further molecule:
Hello, I am looking for reported Bliss excess with SK-MEL-1 (Melanoma) for COc1cc2c(cc1OCCCCCOc1cc3c(cc1OC)C(=O)N1C=C(C)C[C@H]1C=N3)N=C[C@@H]1CC(C)=CN1C2=O [SG3199] + O=C(c1cc(Cc2n[nH]c(=O)c3ccccc23)ccc1F)N1CCN(C(=O)C2CC2)CC1 [Olaparib] (first compound max 0.001 µM, 7x7, partner max 10 µM) . Could you help?
-0.0239
